Test system: Staphylococcus aureus subsp. aureus methicillin-resistant (MRSA) CCM 4750 (ATCC 43300)
Assay: Antibacterial microdilution broth (EUCAST), MRSA
Format: cell-based
Details: Staphylococcus aureus; read after 24 h; read-out: MRSA MIC
Recorded measurements of MIC, one per entry
MEASURED PROPERTY: MIC

>>> measured("NC(=O)c1nccnc1NC(=O)c1ccc(Cl)cc1")
"> 500 µM"
>>> measured("NC(=O)c1nccnc1NC(=O)c1ccc([N+](=O)[O-])cc1")
"> 125 µM"
>>> measured("NC(=O)c1nccnc1NC(=O)c1cccc(Cl)c1")
"> 125 µM"
>>> measured("NC(=O)c1nccnc1NC(=O)c1ccccc1Br")
"> 500 µM"
>>> measured("NC(=O)c1nccnc1NC(=O)Cc1ccc(F)cc1")
"> 250 µM"
>>> measured("NC(=O)c1nccnc1NC(=O)c1ccccc1Cl")
"> 500 µM"
>>> measured("COC(=O)c1nccnc1NC(=O)c1cccc(Cl)c1 [Compound 14e]")
"> 500 µM"
>>> measured("COc1ccc(C(=O)Nc2nccnc2C(N)=O)cc1")
"> 125 µM"
>>> measured("NC(=O)c1nccnc1NC(=O)c1ccccc1F")
"> 500 µM"
>>> measured("COC(=O)c1nccnc1NC(=O)c1ccc(OC)cc1")
"> 500 µM"

* * *

System: HepG2 human hepatocellular carcinoma cells
Experiment: In vitro HepG2 cytotoxicity (CellTiter 96)
Conditions: Homo sapiens, HepG2, 24 h, read-out: HepG2 IC50, 24 h incubation; * limit = highest evaluated concentration (precipitation in medium); ** over the 1000 µM limit
pIC50: −log10 of the molar value.
Recorded measurements of pIC50, one per entry
MEASURED PROPERTY: pIC50

>>> measured("Cc1cccc(C(=O)Nc2nccnc2C(N)=O)c1")
"< 4.00"
>>> measured("NC(=O)c1nccnc1NC(=O)C1CCCCC1")
"< 3.00"
>>> measured("NC(=O)c1nccnc1NC(=O)c1ccc(N)cc1")
3.03
>>> measured("NC(=O)c1nccnc1NC(=O)C12CC3CC(CC(C3)C1)C2")
3.44
>>> measured("Cc1ccc(C(=O)Nc2nccnc2C(=O)N(C)C)cc1")
"< 3.00"
>>> measured("NNC(=O)c1ccncc1")
"< 3.00"
>>> measured("O=c1[nH]c(-c2ccccc2)nc2nccnc12")
"< 3.00"
>>> measured("NC(=O)c1nccnc1NC(=O)c1ccccc1F")
3.25
>>> measured("CCc1ccc(C(=O)Nc2nccnc2C(N)=O)cc1")
"< 4.00"
>>> measured("NC(=O)c1nccnc1NC(=O)CCc1ccccc1")
"< 3.30"
>>> measured("CNC(=O)c1nccnc1NC(=O)c1ccc(C)cc1")
3.12

* * *

Test system: Aspergillus fumigatus ATCC 204305
Test: Antifungal microdilution broth (EUCAST), AF
Type: cell-based
Conditions: Aspergillus fumigatus, ATCC204305; read after 24 h; read-out: AF MIC
Recorded measurements of MIC, one per entry
MEASURED PROPERTY: MIC

>>> measured("O=c1[nH]c(-c2ccc(Cl)cc2)nc2nccnc12 [Compound 42]")
"> 125 µM"
>>> measured("NC(=O)c1nccnc1NC(=O)c1ccc([N+](=O)[O-])cc1 [Compound 21]")
"> 125 µM"
>>> measured("CNC(=O)c1nccnc1NC(=O)c1ccc(Cl)cc1 [Compound 34]")
"> 125 µM"
>>> measured("CCCC(=O)Nc1nccnc1C(N)=O [Compound 29]")
"> 500 µM"
>>> measured("COC(=O)c1nccnc1NC(=O)c1ccccc1Br [Compound 16e]")
"> 500 µM"
>>> measured("O=c1[nH]c(-c2ccccc2)nc2nccnc12 [Compound 39]")
"> 125 µM"
>>> measured("CNC(=O)c1nccnc1NC(=O)c1ccc(Br)cc1 [Compound 35]")
"> 125 µM"
>>> measured("Cc1ccccc1C(=O)Nc1nccnc1C(N)=O [Compound 2]")
"> 125 µM"
>>> measured("NC(=O)c1nccnc1NC(=O)c1ccc(Cl)cc1 [Compound 15]")
"> 125 µM"
>>> measured("COC(=O)c1nccnc1NC(=O)c1cccc(Br)c1 [Compound 17e]")
"> 500 µM"
>>> measured("NC(=O)c1nccnc1NC(=O)C1CCCCC1 [Compound 27]")
"> 500 µM"
>>> measured("NC(=O)c1nccnc1NC(=O)c1cccc(Cl)c1 [Compound 14]")
"> 125 µM"
>>> measured("COC(=O)c1nccnc1NC(=O)C1CCCCC1 [Compound 27e]")
"> 500 µM"
>>> measured("CCCCCCCC(=O)Nc1nccnc1C(N)=O [Compound 32]")
"> 250 µM"
>>> measured("Cc1ccc(C(=O)Nc2nccnc2C(=O)N(C)C)cc1 [Compound 36]")
"> 125 µM"
>>> measured("NC(=O)c1nccnc1NC(=O)CCc1ccccc1 [Compound 26]")
"> 500 µM"
>>> measured("NC(=O)c1nccnc1NC(=O)Cc1ccc(F)cc1 [Compound 25]")
"> 250 µM"
>>> measured("COc1ccc(C(=O)Nc2nccnc2C(N)=O)cc1 [Compound 9]")
"> 125 µM"
>>> measured("O=c1[nH]c(-c2ccc(Br)cc2)nc2nccnc12 [Compound 43]")
"> 125 µM"
>>> measured("CN(C)C(=O)c1nccnc1NC(=O)c1ccc(Cl)cc1 [Compound 37]")
"> 500 µM"
>>> measured("NC(=O)c1nccnc1NC(=O)c1cc(Cl)cc(Cl)c1 [Compound 19]")
"> 500 µM"
>>> measured("NC(=O)c1nccnc1NC(=O)c1ccccc1F [Compound 10]")
"> 500 µM"
>>> measured("NC(=O)c1nccnc1NC(=O)c1ccccc1Cl [Compound 13]")
"> 500 µM"
>>> measured("NC(=O)c1nccnc1NC(=O)c1cccc(F)c1 [Compound 11]")
"> 250 µM"
